The origin of these recorded values is ChEMBL document CHEMBL6182948.

assay details: Stability in human plasma assessed as compound remaining at 100 uM measured after 120 mins by LC-MS/MS analysis
Assay type: ADME, cell-free
condition: read-out: Stability
quantity name: remaining at 2 h, 100 µM (%)

N#Cc1ccc(-c2csc(C(=O)Nc3cc(Cl)cc(Cl)c3)n2)cc1 | 103
CC(C)[N+](C)(CCOC(=O)C1c2ccccc2Oc2ccccc21)C(C)C [PROPANTHELINE BROMIDE] | 1.7
N#Cc1ccc(-c2csc(C(=O)Nc3ccc(C(F)(F)F)cc3)n2)cc1 | 93.4
O=C(Nc1cc(Cl)cc(Cl)c1)c1nc(-c2cccc(Cl)c2)cs1 | 93.9

====

assay details: Stability in human plasma assessed as compound remaining at 100 uM measured after 30 mins by LC-MS/MS analysis
Assay type: ADME, cell-free
condition: read-out: Stability
quantity name: remaining at 0.5 h, 100 µM (%)

N#Cc1ccc(-c2csc(C(=O)Nc3ccc(C(F)(F)F)cc3)n2)cc1 | 110
N#Cc1ccc(-c2csc(C(=O)Nc3cc(Cl)cc(Cl)c3)n2)cc1 | 116
CC(C)[N+](C)(CCOC(=O)C1c2ccccc2Oc2ccccc21)C(C)C [PROPANTHELINE BROMIDE] | 41.3
O=C(Nc1cc(Cl)cc(Cl)c1)c1nc(-c2cccc(Cl)c2)cs1 | 106

====

assay details: Metabolic stability in liver microsomes (unknown origin) assessed as compound remaining at 0.5 mg/ml measured after 5 mins in presence of NADPH regenerating system by LC-MS/MS analysis relative to control
Type: ADME, Microsome
condition: read-out: Stability
quantity name: remaining at 5 min (%)

N#Cc1ccc(-c2csc(C(=O)Nc3ccc(C(F)(F)F)cc3)n2)cc1 | 93.1
O=C(Nc1cc(Cl)cc(Cl)c1)c1nc(-c2cccc(Cl)c2)cs1 | 99.5
N#Cc1ccc(-c2csc(C(=O)Nc3cc(Cl)cc(Cl)c3)n2)cc1 | 93.8

====

tested target: Cytochrome P450 2C19 (Homo sapiens, UniProt P33261)
Sequence (P33261 whole entry): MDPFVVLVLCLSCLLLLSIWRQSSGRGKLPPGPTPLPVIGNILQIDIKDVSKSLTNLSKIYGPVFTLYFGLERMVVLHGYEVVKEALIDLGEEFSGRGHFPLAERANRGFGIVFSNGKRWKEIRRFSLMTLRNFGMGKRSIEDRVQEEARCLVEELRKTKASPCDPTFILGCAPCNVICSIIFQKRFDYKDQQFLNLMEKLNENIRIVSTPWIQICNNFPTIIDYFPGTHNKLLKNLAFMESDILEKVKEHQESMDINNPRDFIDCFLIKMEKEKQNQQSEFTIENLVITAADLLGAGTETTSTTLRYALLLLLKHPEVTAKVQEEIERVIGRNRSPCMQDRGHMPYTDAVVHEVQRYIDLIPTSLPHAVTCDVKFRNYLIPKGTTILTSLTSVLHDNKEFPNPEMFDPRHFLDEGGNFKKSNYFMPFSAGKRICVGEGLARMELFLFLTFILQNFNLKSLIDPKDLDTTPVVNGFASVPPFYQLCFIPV
assay details: Inhibition of CYP2C19 in human liver microsome pre-incubated with compound for 5 mins followed NADPH addition and measured after 30 mins by LC-MS/MS analysis
Assay type: ADME, microsomes
quantity name: pIC50
Lab note — pIC50 values are minus log10 of concentrations in M.

Looking up `N#Cc1ccc(-c2csc(C(=O)Nc3ccc(C(F)(F)F)cc3)n2)cc1` , I found its pIC50 recorded as 5.19

====

Listed here: items and their measured Ratio IC50.
Species on record: Homo sapiens
assay details: Selectivity index, ratio of IC50 for human recombinant CYP1A1 to IC50 for human recombinant CYP1B1 using 7-ethoxyresorufin as substrate

Observe how each entry below is paired with its result.
N#Cc1ccc(-c2csc(C(=O)Nc3cc(Cl)cc(Cl)c3)n2)cc1 | > 56400
COc1ccc(-c2csc(C(=O)Nc3cc(Cl)cc(Cl)c3)n2)cc1 | > 454

Now consider a different compound.
Looking up `O=C(Nc1cc(Cl)cc(Cl)c1)c1nc(-c2cccc(Cl)c2)cs1` , I found its Ratio IC50 recorded as > 67500

====

tested target: Cytochrome P450 1A2 (Homo sapiens)
Sequence (P05177 whole entry): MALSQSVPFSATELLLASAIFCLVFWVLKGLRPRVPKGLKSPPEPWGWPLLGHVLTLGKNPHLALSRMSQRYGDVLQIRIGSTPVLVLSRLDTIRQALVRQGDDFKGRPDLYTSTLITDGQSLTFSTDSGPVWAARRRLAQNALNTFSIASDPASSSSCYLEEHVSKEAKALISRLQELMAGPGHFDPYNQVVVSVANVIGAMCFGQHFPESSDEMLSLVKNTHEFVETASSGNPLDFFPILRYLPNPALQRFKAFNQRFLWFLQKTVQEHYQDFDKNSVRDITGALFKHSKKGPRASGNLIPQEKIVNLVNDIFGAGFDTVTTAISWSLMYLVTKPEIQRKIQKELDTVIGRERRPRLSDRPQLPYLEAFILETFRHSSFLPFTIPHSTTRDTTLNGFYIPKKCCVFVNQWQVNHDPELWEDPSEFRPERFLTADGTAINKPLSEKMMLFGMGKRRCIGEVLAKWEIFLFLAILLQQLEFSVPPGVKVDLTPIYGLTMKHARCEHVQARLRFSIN
assay details: Inhibition of human recombinant CYP1A2 using 7-ethoxyresorufin as substrate incubated under dark condition for 45 mins in presence of NADPH by EROD fluorescence assay
pIC50: −log10 of the molar value.
Listed here: items and their measured pIC50.

Cc1sc(C(=O)Nc2cc(Cl)cc(Cl)c2)nc1-c1cccc(Cl)c1 | < 5.00
COc1cc(NC(=O)c2nc(-c3ccc(F)cc3)cs2)cc(OC)c1 | < 5.00

Now consider a different compound.
Looking up `Cc1sc(C(=O)Nc2ccc(OC(F)F)cc2)nc1-c1cccc(Cl)c1` , I found its pIC50 recorded as < 4.00

====

tested target: Cytochrome P450 1B1 (Homo sapiens)
Sequence (Q16678 whole entry): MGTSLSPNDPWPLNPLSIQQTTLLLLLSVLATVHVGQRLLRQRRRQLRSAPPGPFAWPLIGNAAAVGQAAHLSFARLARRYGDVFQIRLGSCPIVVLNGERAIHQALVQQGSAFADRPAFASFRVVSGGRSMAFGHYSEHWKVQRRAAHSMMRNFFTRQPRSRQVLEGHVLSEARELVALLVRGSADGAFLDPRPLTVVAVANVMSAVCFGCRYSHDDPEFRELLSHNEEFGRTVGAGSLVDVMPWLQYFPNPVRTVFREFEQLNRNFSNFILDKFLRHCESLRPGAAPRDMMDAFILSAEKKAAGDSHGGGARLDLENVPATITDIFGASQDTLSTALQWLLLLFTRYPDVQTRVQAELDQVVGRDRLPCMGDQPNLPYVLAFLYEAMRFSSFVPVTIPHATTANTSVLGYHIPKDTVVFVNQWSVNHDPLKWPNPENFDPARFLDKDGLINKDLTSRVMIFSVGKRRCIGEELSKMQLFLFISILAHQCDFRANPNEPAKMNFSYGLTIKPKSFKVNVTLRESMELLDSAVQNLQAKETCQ
assay details: Inhibition of human recombinant CYP1B1 using 7-ethoxyresorufin as substrate incubated under dark condition for 30 mins in presence of NADPH by EROD fluorescence assay
pIC50: −log10 of the molar value.
quantity name: pIC50

Observe how each entry below is paired with its result.
COc1ccc(NC(=O)c2nc(-c3ccccc3)cs2)cc1 | 7.95
N#Cc1cccc(-c2csc(C(=O)Nc3ccc(OC(F)F)cc3)n2)c1 | 8.04
NC(=O)c1ccc(-c2csc(C(=O)Nc3cc(Cl)cc(Cl)c3)n2)cc1 | 8.10

a. O=C(Nc1ccc(F)cc1F)c1nc(-c2ccc(F)cc2)cs1
b. CCc1sc(C(=O)Nc2cc(Cl)cc(Cl)c2)nc1-c1ccc(F)cc1
c. O=C(Nc1cc(Cl)cc(Cl)c1)c1nc(-c2ccc([N+](=O)[O-])cc2)cs1
d. CC(C)c1ccc(-c2csc(C(=O)Nc3cc(Cl)cc(Cl)c3)n2)cc1
e. O=C(Nc1cc(Cl)ccc1Cl)c1nc(-c2ccccc2)cs1
Q. Could you please order the items by pIC50, going from the lowest number to the highest? Rank them, then answer with their labels in that order.
A. d, b, c, e, a

====

Organism: Homo sapiens
assay details: Selectivity index, ratio of IC50 for human recombinant CYP1A1 to IC50 for human recombinant CYP1B1 using 7-ethoxyresorufin as substrate
quantity name: Ratio IC50

O=C(Nc1cc(Cl)cc(Cl)c1)c1nc(-c2ccccc2F)cs1 | 107

a. O=C(Nc1cc(Cl)cc(Cl)c1)c1nc(-c2ccc(Cl)cc2)cs1
b. O=C(Nc1ccc(C(F)(F)F)cc1)c1nc(-c2ccc(Cl)cc2)cs1
c. COc1ccc(NC(=O)c2nc(-c3ccccc3)cs2)c(OC)c1
d. Cc1ccc(-c2csc(C(=O)Nc3cc(Cl)cc(Cl)c3)n2)cc1
Q. Could you please order the items by Ratio IC50, going from the lowest number to the highest? Rank them, then answer with their labels in that order.
A. c, d, b, a

====

tested target: Cytochrome P450 1B1 (Homo sapiens, UniProt Q16678)
assay details: Inhibition of human recombinant CYP1B1 using 7-ethoxyresorufin as substrate incubated under dark condition for 30 mins in presence of NADPH by EROD fluorescence assay
pIC50: −log10 of the molar value.
quantity name: pIC50

a. O=C(Nc1ccc(C(F)(F)F)cc1)c1nc(-c2ccc(F)cc2)cs1
b. COc1ccc(-c2csc(C(=O)Nc3cc(Cl)cc(Cl)c3)n2)cc1
c. COc1cc(NC(=O)c2nc(-c3cccc(F)c3)cs2)cc(OC)c1
Q. Rank the listed compounds by pIC50, largest first. Rank them, then answer with their labels in that order.
A. a, c, b

====

tested target: Cytochrome P450 1A1 (Homo sapiens)
Sequence (P04798 whole entry): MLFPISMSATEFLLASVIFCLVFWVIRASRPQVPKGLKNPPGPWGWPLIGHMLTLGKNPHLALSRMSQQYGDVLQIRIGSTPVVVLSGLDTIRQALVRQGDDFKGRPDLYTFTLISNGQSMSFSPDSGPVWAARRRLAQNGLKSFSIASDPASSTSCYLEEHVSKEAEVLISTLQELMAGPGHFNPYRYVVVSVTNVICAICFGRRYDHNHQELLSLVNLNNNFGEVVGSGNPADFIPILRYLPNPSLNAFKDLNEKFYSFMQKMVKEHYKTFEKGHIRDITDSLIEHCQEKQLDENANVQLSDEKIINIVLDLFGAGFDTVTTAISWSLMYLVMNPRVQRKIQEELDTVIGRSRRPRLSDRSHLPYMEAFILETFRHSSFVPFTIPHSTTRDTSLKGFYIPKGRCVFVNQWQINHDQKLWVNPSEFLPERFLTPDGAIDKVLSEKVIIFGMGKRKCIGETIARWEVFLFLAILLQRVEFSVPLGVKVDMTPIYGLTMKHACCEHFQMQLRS
assay details: Inhibition of human recombinant CYP1A1 using 7-ethoxyresorufin as substrate incubated under dark condition for 15 mins in presence of NADPH by EROD fluorescence assay
quantity name: IC50 (nM)

Observe how each entry below is paired with its result.
CC(=O)Nc1ccc(-c2csc(C(=O)Nc3cc(Cl)cc(Cl)c3)n2)cc1 | 167
O=C(Nc1ccc(-n2ccnc2)cc1)c1nc(-c2ccccc2)cs1 | 10.8
O=C(Nc1cc(Cl)cc(Cl)c1)c1nc(-c2ccc(Cl)cc2)cs1 | 386
COc1cc(NC(=O)c2nc(-c3ccccc3F)cs2)cc(OC)c1 | 358
Nc1ccc(-c2csc(C(=O)Nc3cc(Cl)cc(Cl)c3)n2)cc1 | 962

P. COc1ccc(OC)c(NC(=O)c2nc(-c3ccccc3)cs2)c1
Q. NC(=O)c1ccc(-c2csc(C(=O)Nc3ccc(OC(F)F)cc3)n2)cc1
Q. Form: Entry with minimum IC50 (choose one): P / Q Give the label under which the chosen entry appears.
A. Q
(Q: 106 nM, P: 404 nM)

P. Cc1ccc(-c2csc(C(=O)Nc3cc(Cl)cc(Cl)c3)n2)cc1
Q. O=C(Nc1ccc(OC(F)F)cc1)c1nc(-c2cccc(Cl)c2)cs1
R. O=C(Nc1ccc(I)cc1)c1nc(-c2cccc(F)c2)cs1
Q. Rank by IC50 (largest to smallest). Rank them, then answer with their labels in that order.
A. P, R, Q
(P: 566 nM, R: 150 nM, Q: 55.7 nM)
